- Target System: JAK3 (Homo sapiens (Human), UniProt P52333)
- Sequence (P52333 822-1111): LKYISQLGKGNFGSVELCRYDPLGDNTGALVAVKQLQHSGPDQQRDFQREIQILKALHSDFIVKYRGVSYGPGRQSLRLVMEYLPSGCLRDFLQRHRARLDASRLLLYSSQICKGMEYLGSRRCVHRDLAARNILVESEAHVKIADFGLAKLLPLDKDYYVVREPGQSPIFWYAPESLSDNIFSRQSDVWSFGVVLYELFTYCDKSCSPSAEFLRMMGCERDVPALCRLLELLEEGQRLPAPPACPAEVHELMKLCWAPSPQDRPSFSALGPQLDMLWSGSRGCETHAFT
- Experimental Protocol: JAK Caliper Enzyme Assay at 1 mM ATP, JAK3
- Assay type: biochemical
Experimental Readout: IC50

Answer with the recorded IC50 for the molecule listed here: Cn1nc(-c2cc3ncccc3c(-c3ccn([C@]4(CC#N)C[C@H](C#N)C4)n3)n2)cc1N [Example 66]
2.5 µM

Answer with the recorded IC50 for the molecule listed here: Cn1cc(-c2cc3ncccc3c(-c3ccn(C4(CC#N)CN(CC(F)(F)F)C4)n3)n2)cn1 [Example 99]
> 10 µM

Answer with the recorded IC50 for the molecule listed here: Cn1nc(-c2cc3ncccc3c(-c3ccn([C@]4(CC#N)C[C@@H](C#N)C4)n3)n2)cc1CO [Example 62]
> 10 µM

Answer with the recorded IC50 for the molecule listed here: N#CCC1(n2ccc(-c3nc(-c4ccc(N)nc4)cc4ncccc34)n2)CN(CC(F)(F)F)C1 [Example 192]
> 10 µM

Answer with the recorded IC50 for the molecule listed here: Cc1ncc(-c2cc3ncccc3c(-c3ccn(C4(CC#N)CN(S(C)(=O)=O)C4)n3)n2)cc1N [Example 217]
> 10 µM

Answer with the recorded IC50 for the molecule listed here: Cn1ncc(-c2cc3ncccc3c(-c3ccn([C@]4(CC#N)C[C@H](C#N)C4)n3)n2)c1N [Example 142]
2.16 µM

Answer with the recorded IC50 for the molecule listed here: N#CCC1(n2ccc(-c3nc(-c4cnn(C5CCCCO5)n4)cc4ncccc34)n2)CN(CC(F)(F)F)C1 (stereo not shown) [Example 155]
> 10 µM
